- assay_info: Metabolic stability in rat liver microsomes assessed as compound remaining after 30 mins
- Assay type: ADME, microsome
- cond: read-out: Stability
reported_endpoint: remaining at 0.5 h (%)

>  <smi>
Nc1cc(C(F)F)c(-c2nc(N3C4CCC3COC4)nc(N3C4CCC3COC4)n2)cn1

>  <reported_value>
108

$$$$

---

- subject_of_test: Phosphatidylinositol 4,5-bisphosphate 3-kinase catalytic subunit gamma isoform (Homo sapiens)
- Sequence (P48736 whole entry, canonical isoform): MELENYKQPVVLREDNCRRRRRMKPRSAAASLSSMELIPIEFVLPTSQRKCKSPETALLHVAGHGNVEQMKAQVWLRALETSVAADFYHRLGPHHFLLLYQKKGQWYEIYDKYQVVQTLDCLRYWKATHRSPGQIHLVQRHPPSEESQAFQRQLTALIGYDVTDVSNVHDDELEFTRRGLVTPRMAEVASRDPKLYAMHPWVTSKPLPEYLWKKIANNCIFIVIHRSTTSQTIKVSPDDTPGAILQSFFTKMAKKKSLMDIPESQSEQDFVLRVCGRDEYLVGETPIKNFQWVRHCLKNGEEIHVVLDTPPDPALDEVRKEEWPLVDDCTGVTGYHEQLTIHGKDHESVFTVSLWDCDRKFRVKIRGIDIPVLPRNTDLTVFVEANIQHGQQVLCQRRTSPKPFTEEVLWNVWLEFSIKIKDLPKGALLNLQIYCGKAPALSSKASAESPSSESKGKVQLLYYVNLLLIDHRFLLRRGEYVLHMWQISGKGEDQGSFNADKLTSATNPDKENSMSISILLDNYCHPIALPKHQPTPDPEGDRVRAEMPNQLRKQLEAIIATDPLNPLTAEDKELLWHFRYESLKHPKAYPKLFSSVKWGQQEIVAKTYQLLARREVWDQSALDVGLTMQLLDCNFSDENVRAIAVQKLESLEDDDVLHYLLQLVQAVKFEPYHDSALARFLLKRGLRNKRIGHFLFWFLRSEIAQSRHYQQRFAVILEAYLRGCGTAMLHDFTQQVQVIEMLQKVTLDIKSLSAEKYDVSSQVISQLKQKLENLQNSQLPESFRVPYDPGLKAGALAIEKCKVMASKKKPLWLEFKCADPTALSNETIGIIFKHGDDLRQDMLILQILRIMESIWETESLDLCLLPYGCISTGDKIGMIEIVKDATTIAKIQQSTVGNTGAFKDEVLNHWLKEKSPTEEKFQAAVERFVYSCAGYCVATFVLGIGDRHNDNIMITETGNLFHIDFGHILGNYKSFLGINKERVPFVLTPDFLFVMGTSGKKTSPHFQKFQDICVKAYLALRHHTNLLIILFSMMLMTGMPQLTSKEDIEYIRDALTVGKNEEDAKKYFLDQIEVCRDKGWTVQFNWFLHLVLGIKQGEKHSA
pKd: −log10 of the molar value.
reported_endpoint: pKd

>  <compound>
CCC(CC)n1cnc2c(-c3cnc(N)cn3)nc(N3CC4CCC(C3)O4)nc21

>  <reported_value>
4.66

$$$$
>  <compound>
Nc1cc(C(F)F)c(-c2nc(N3C4CCC3COC4)nc(N3C4CCC3COC4)n2)cn1

>  <reported_value>
4.74

$$$$
>  <compound>
CNC(=O)c1cccc(-c2ccc3c(N4CCOC[C@@H]4C)nc(N4CCOC[C@@H]4C)nc3n2)c1 [VISTUSERTIB]

>  <reported_value>
5.08

$$$$
